target: AM receptor (Homo sapiens, UniProt O60895+Q16602)
Construct: expressed in transfected cells; host or cells: HEK293 cell line
Sequence (Q16602 23-461): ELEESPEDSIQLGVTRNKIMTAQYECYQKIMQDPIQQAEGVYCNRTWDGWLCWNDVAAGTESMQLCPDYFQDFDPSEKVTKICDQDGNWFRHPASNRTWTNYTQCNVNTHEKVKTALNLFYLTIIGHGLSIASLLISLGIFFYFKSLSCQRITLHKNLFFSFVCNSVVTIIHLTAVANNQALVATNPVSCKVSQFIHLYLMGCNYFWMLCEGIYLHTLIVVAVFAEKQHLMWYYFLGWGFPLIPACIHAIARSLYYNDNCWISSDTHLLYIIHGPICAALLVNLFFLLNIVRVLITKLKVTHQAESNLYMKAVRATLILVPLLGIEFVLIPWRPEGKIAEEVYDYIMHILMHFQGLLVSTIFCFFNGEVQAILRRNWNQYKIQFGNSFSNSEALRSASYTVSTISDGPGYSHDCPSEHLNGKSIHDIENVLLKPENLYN
Sequence (O60895 43-175): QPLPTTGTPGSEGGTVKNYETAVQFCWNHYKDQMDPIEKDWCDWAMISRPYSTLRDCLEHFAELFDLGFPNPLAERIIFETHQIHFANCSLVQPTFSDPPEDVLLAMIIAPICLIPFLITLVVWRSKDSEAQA
test: Intracellular cAMP concentration-increasing effect in HEK293 cell line caused to express an AM receptor;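 note: cAMP inside confluent receptor-expressing cells quantified by ELISA after 15 min exposure to each peptide at 10^−8 mol/L alongside 0.5 mM IBMX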
Assay type: cell-based
condition_info: 10^−8 mol/L, 15 minutes, 0.5 mM IBMX; percentage with respect to h.AM (1-52)
Positions of bridges follow the written chain, without caps; N, C: chain ends.
quantity: Intracellular cAMP concentration-increasing effect (%)
Number first, unit second.

I'm curious: which Intracellular cAMP concentration-increasing effect (%) was measured for CH3O-PEG (5k)-(CH2)2—CH2-^αNH-(h.AM (16-52)) ({CH3O‑PEG (5k)‑(CH2)2—CH2}-CRFGTCTVQKLAHQIYQFTDKDKDNVAPRSKISPQGY-NH2; disulfide 1-6 (inferred); ends not checked) [Compound (20)] tested on AM receptor (Homo sapiens, UniProt O60895+Q16602)? 39%

I'm curious: which Intracellular cAMP concentration-increasing effect (%) was measured for CH3O-PEG (5k)-(CH2)2—CH2-^αNH-(h.AM (11-52)) ({CH3O‑PEG (5k)‑(CH2)2—CH2}-LRSFGCRFGTCTVQKLAHQIYQFTDKDKDNVAPRSKISPQGY-NH2; disulfide 6-11 (inferred); ends not checked) [Compound (19)] tested on AM receptor (Homo sapiens, UniProt O60895+Q16602)? 80%

I'm curious: which Intracellular cAMP concentration-increasing effect (%) was measured for GL-2-branched CH3O-PEG (20k)-CO-^αNH-(h.AM (11-52)) ({GL‑2‑branched CH3O‑PEG (20k)‑CO}-LRSFGCRFGTCTVQKLAHQIYQFTDKDKDNVAPRSKISPQGY-NH2; disulfide 6-11 (inferred); ends not checked) [Compound (31)] tested on AM receptor (Homo sapiens, UniProt O60895+Q16602)? 104%

I'm curious: which Intracellular cAMP concentration-increasing effect (%) was measured for CH3O-PEG (20k)-(CH2)2—CH2-^αNH-(h.AM (11-52)) ({CH3O‑PEG (20k)‑(CH2)2—CH2}-LRSFGCRFGTCTVQKLAHQIYQFTDKDKDNVAPRSKISPQGY-NH2; disulfide 6-11 (inferred); ends not checked) [Compound (22)] tested on AM receptor (Homo sapiens, UniProt O60895+Q16602)? 97%

Data origin, for the record: patent US11478551B2
